All values here come from patent US20240116985A1.

assayInfo: Solubility in PBS
Format: physicochemical
measurementContext: Solubility (uM)

{"columns": ["molecule", "Solubility"],
 "data": [
  ["CC(=O)N1CCC[C@]12CC=CCCCC1(CCCC=CCCCOC(=O)N3CC[C@@](C(=O)N[C@@H](Cc4ccsc4)C(=O)N[C@@H](Cc4csc5ccccc45)C(=O)N[C@@H](CCC(N)=O)C(=O)N[C@@H](C)C(=O)N[C@@H](C)C(=O)N[C@@H](C)C(N)=O)(C3)NC(=O)[C@H](CC(N)=O)NC(=O)[C@H](Cc3ccccc3)NC(=O)[C@H](C)NC(=O)[C@H](C)NC(=O)[C@H](CC(=O)O)NC(=O)[C@H](CC(=O)O)NC1=O)NC(=O)[C@H](CC(C)(C)C)NC(=O)[C@H](CC(=O)O)NC2=O (some centres unmarked) [I-870]", "47 µM"],
  ["CC(=O)N1CCC[C@]12CC=CCCCC1(CCCC=CCCCOC(=O)N3CC[C@@](C(=O)N[C@@H](Cc4ccsc4)C(=O)N[C@@H](Cc4csc5ccccc45)C(=O)N[C@@H](CO)C(N)=O)(C3)NC(=O)[C@H](CC(N)=O)NC(=O)[C@H](Cc3ccccc3)NC(=O)[C@H](C)NC(=O)[C@H](C)NC(=O)[C@H](CC(=O)O)NC(=O)[C@H](CC(=O)O)NC1=O)NC(=O)[C@H](CC(C)(C)C)NC(=O)[C@H](CC(=O)O)NC2=O (some centres unmarked) [I-815]", "46 µM"],
  ["CC(=O)N1CCC[C@]12CC=CCCCC1(CCCC=CCCCCCC[C@@](C)(C(=O)N[C@@H](Cc3ccccc3)C(=O)N[C@@H](Cc3ccc4ccccc4c3)C(=O)N[C@@H](CCC(N)=O)C(N)=O)NC(=O)[C@H](C(C)C)NC(=O)[C@H](Cc3ccccc3)NC(=O)[C@H](C)NC(=O)[C@H](C)NC(=O)[C@H](CCC(=O)O)NC(=O)[C@H](CC(=O)O)NC1=O)NC(=O)[C@H](C)NC(=O)[C@H](CC(=O)O)NC2=O (some centres unmarked) [I-140]", "48 µM"],
  ["CC(=O)N1CCC[C@]12CC=CCCCC1(CCCC=CCCCOC(=O)N3CC[C@@](C(=O)N[C@@H](Cc4ccccc4Cl)C(=O)N[C@@H](Cc4csc5ccccc45)C(=O)N[C@@H](CCC(N)=O)C(N)=O)(C3)NC(=O)[C@H](CO)NC(=O)[C@H](Cc3ccccc3)NC(=O)[C@H](C)NC(=O)[C@H](C)NC(=O)[C@H](CC(=O)O)NC(=O)[C@H](CC(=O)O)NC1=O)NC(=O)[C@H](CC1CCCCC1)NC(=O)[C@H](CC(=O)O)NC2=O (some centres unmarked) [I-1044]", "43 µM"],
  ["COCCOCCOCCOCCOCCOCCC(=O)NCCCC[C@H](NC(=O)[C@H](CCC(N)=O)NC(=O)[C@H](Cc1csc2ccccc12)NC(=O)[C@H](Cc1ccsc1)NC(=O)[C@]12CCN(C1)C(=O)OCCCC=CCCCC1(CCCC=CC[C@]3(CCCN3C(C)=O)C(=O)N[C@@H](CC(=O)O)C(=O)N[C@@H](CC(C)(C)C)C(=O)N1)C(=O)N[C@@H](CC(=O)O)C(=O)N[C@@H](CC(=O)O)C(=O)N[C@@H](C)C(=O)N[C@@H](C)C(=O)N[C@@H](Cc1ccccc1)C(=O)N[C@@H](CC(N)=O)C(=O)N2)C(N)=O (some centres unmarked) [I-913]", "49 µM"]
]}
